# Test target: Phosphatidylinositol 4,5-bisphosphate 3-kinase catalytic subunit alpha isoform (Homo sapiens, UniProt P42336)
# Sequence (P42336 whole entry, canonical isoform): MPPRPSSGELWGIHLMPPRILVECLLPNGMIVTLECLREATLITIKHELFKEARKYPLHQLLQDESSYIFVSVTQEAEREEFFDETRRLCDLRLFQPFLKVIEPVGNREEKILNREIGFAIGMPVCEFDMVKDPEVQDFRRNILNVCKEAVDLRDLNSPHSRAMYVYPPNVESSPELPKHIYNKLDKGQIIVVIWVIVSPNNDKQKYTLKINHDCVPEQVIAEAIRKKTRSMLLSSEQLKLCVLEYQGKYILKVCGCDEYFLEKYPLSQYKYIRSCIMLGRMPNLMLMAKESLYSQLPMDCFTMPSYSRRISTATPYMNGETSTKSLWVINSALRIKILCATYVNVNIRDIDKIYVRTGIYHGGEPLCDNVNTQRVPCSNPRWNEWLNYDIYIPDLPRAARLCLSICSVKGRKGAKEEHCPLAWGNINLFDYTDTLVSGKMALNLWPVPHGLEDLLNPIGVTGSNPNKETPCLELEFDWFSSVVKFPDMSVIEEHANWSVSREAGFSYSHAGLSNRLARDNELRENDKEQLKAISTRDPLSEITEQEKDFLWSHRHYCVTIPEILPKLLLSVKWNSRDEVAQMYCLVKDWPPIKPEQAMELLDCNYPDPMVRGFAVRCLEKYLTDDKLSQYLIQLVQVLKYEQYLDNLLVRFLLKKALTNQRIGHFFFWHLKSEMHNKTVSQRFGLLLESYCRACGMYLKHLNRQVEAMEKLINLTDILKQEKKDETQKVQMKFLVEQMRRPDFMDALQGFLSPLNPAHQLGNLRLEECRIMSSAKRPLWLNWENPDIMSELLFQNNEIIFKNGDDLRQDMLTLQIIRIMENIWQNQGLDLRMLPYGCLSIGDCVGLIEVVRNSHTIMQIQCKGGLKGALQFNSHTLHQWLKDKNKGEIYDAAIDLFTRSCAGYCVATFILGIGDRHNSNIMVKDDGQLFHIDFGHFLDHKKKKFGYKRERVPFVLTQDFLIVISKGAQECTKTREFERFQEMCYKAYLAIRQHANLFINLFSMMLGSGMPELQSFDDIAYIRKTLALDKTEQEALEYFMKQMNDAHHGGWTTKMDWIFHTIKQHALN
pIC50: −log10 of the molar value.
# pIC50 annotations

Compound	Inequality sign	pIC50
Cc1cc(N[C@@H](C)c2ccccc2)c2nc(N3CCOCC3)cc(=O)n2c1	=	5.66
Cc1ccc(Nc2cc(C)cn3c(=O)cc(N4CCOCC4)nc23)cc1	=	5.54
Cc1ccccc1NCc1cccn2c(=O)cc(N3CCOCC3)nc12	=	5.74
Cc1cccc(Nc2cc(C)cn3c(=O)cc(N4CCOCC4)nc23)c1	<	6.00
O=c1cc(N2CCOCC2)nc2c(CNc3ccccc3)cccn12	=	5.96
O=c1cc(N2CCOCC2)nc2c(COc3ccccc3)cccn12	=	5.82
Cc1ccc(OCc2cccn3c(=O)cc(N4CCOCC4)nc23)cc1	=	5.60
Cc1cc(NCc2ccncc2)c2nc(N3CCOCC3)cc(=O)n2c1	=	5.31
COc1ccc(OCc2cccn3c(=O)cc(N4CCOCC4)nc23)cc1	=	5.80
O=c1cc(N2CCOCC2)nc2c(NS(=O)(=O)c3ccccc3)cccn12	<	5.00
Cc1cccc(NCc2cccn3c(=O)cc(N4CCOCC4)nc23)c1	=	5.96
Cc1ccccc1C(=O)Nc1cccn2c(=O)cc(N3CCOCC3)nc12	=	6.09
N#Cc1ccc(OCc2cccn3c(=O)cc(N4CCOCC4)nc23)cc1	<	5.00
Cc1cccc(C(=O)Nc2cccn3c(=O)cc(N4CCOCC4)nc23)c1	=	6.24
COc1ccc(NCc2cccn3c(=O)cc(N4CCOCC4)nc23)cc1	=	6.46
Cc1ccc(NCc2cccn3c(=O)cc(N4CCOCC4)nc23)cc1	=	5.17
CN(Cc1cccn2c(=O)cc(N3CCOCC3)nc12)c1ccccc1	=	6.10
O=C(NCc1ccccn1)c1cccn2c(=O)cc(N3CCOCC3)nc12	=	5.32
Cc1cc(NCc2ccccn2)c2nc(N3CCOCC3)cc(=O)n2c1	=	5.70
Cc1cc(C(C)N(C)c2ccccc2)c2nc(N3CCOCC3)cc(=O)n2c1 (racemic)	=	5.82
O=c1cc(N2CCOCC2)nc2c(CSc3ccccc3)cccn12	=	5.82
Cc1ccc(C(=O)Nc2cccn3c(=O)cc(N4CCOCC4)nc23)cc1	=	5.87
Cc1cc(Nc2ccccc2C)c2nc(N3CCOCC3)cc(=O)n2c1	=	5.82

* * *

# Test target: Phosphatidylinositol 4,5-bisphosphate 3-kinase catalytic subunit alpha isoform (Homo sapiens, UniProt P42336)
// assign 1 (yes) if IC50 falls strictly below 1 µM, else 0 (no) (ties count as 0 (no))

Smiles data	Category
Cc1cc(NCc2cccnc2)c2nc(N3CCOCC3)cc(=O)n2c1	0 (no)
Cc1cc(Nc2c(C)cccc2C)c2nc(N3CCOCC3)cc(=O)n2c1	0 (no)
O=C(NCc1cccnc1)c1cccn2c(=O)cc(N3CCOCC3)nc12	0 (no)
O=C(NCc1ccncc1)c1cccn2c(=O)cc(N3CCOCC3)nc12	0 (no)
Cc1ccc(NC(=O)c2cccn3c(=O)cc(N4CCOCC4)nc23)cc1	0 (no)
Cc1cc(N(C)c2ccccc2)c2nc(N3CCOCC3)cc(=O)n2c1	0 (no)
Cc1cc(Nc2ccccc2)c2nc(N3CCOCC3)cc(=O)n2c1	0 (no)
O=C(Nc1cccn2c(=O)cc(N3CCOCC3)nc12)Oc1ccccc1	0 (no)
O=C(Nc1cccn2c(=O)cc(N3CCOCC3)nc12)c1ccccc1	1 (yes)
O=C(Nc1ccccc1)c1cccn2c(=O)cc(N3CCOCC3)nc12	1 (yes)

* * *

# IC50 annotations
# Test target: Phosphatidylinositol 4,5-bisphosphate 3-kinase catalytic subunit alpha isoform (Homo sapiens)
Measured quantity: IC50 (nM)

Smiles data	Reported
Cc1cc(N[C@H](C)c2ccccc2)c2nc(N3CCOCC3)cc(=O)n2c1	2700
O=C(Nc1ccccc1)Nc1cccn2c(=O)cc(N3CCOCC3)nc12	600
Cc1ccccc1NC(=O)c1cccn2c(=O)cc(N3CCOCC3)nc12	1800
Cc1cc(NCc2ccccc2)c2nc(N3CCOCC3)cc(=O)n2c1	500
Cc1cccc(CNc2cc(C)cn3c(=O)cc(N4CCOCC4)nc23)c1	400

* * *

# Test target: Phosphatidylinositol 4,5-bisphosphate 3-kinase catalytic subunit beta isoform (Homo sapiens, UniProt P42338)
# Sequence (P42338 whole entry, canonical isoform): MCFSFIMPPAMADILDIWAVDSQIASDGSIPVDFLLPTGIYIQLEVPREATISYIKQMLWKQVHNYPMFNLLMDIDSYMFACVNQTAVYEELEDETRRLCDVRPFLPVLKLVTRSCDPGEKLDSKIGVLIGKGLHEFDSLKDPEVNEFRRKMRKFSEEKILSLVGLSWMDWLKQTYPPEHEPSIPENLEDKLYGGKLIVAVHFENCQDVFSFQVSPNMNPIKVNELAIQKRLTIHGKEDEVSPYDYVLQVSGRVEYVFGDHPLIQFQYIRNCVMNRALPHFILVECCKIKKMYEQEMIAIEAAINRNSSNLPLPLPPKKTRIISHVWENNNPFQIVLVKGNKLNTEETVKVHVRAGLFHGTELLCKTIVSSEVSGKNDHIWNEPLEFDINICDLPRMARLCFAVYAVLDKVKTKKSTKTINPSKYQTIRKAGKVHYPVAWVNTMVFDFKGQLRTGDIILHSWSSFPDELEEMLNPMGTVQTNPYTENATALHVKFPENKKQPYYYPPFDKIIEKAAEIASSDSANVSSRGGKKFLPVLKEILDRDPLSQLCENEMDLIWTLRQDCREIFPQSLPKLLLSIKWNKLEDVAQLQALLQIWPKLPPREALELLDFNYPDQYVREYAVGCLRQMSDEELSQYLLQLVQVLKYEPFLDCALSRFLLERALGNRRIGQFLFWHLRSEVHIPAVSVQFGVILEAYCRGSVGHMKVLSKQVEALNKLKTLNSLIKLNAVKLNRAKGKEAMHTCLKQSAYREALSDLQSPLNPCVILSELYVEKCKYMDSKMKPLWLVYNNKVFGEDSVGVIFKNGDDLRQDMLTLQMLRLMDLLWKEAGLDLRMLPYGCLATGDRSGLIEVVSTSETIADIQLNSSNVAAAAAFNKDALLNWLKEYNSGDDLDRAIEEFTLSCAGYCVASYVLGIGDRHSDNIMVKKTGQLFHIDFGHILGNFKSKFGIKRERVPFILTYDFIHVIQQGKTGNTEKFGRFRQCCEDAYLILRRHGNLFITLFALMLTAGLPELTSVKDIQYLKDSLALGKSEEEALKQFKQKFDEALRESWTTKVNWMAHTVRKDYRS
// assign 1 if IC50 falls strictly below 1000 nM, else -1 (ties count as -1)

Molecule	Category
Cc1cc(NCc2cccnc2)c2nc(N3CCOCC3)cc(=O)n2c1	1
Cc1cc(NCc2ccccc2)c2nc(N3CCOCC3)cc(=O)n2c1	1
Cc1cccc(Nc2cc(C)cn3c(=O)cc(N4CCOCC4)nc23)c1	-1
Cc1ccc(NC(=O)c2cccn3c(=O)cc(N4CCOCC4)nc23)cc1	-1
Cc1cc(N[C@H](C)c2ccccc2)c2nc(N3CCOCC3)cc(=O)n2c1	-1
O=C(NCc1ccncc1)c1cccn2c(=O)cc(N3CCOCC3)nc12	-1
Cc1cc(NCc2ccccn2)c2nc(N3CCOCC3)cc(=O)n2c1	1
O=C(NCc1ccccn1)c1cccn2c(=O)cc(N3CCOCC3)nc12	-1
Cc1ccccc1C(=O)Nc1cccn2c(=O)cc(N3CCOCC3)nc12	-1
Cc1ccccc1NC(=O)c1cccn2c(=O)cc(N3CCOCC3)nc12	-1
CN(Cc1cccn2c(=O)cc(N3CCOCC3)nc12)c1ccccc1	1
Cc1cccc(C(=O)Nc2cccn3c(=O)cc(N4CCOCC4)nc23)c1	-1
COc1ccc(OCc2cccn3c(=O)cc(N4CCOCC4)nc23)cc1	-1
Cc1cc(N[C@@H](C)c2ccccc2)c2nc(N3CCOCC3)cc(=O)n2c1	1
Cc1cccc(CNc2cc(C)cn3c(=O)cc(N4CCOCC4)nc23)c1	1
Cc1cc(NCc2ccccc2C)c2nc(N3CCOCC3)cc(=O)n2c1	1
Cc1ccc(CNc2cc(C)cn3c(=O)cc(N4CCOCC4)nc23)cc1	-1
O=C(Nc1ccccc1)Nc1cccn2c(=O)cc(N3CCOCC3)nc12	1
Cc1cc(NCc2ccncc2)c2nc(N3CCOCC3)cc(=O)n2c1	-1
Cc1cc(N(C)c2ccccc2)c2nc(N3CCOCC3)cc(=O)n2c1	1
O=c1cc(N2CCOCC2)nc2c(CS(=O)(=O)c3ccccc3)cccn12	-1
Cc1ccccc1NCc1cccn2c(=O)cc(N3CCOCC3)nc12	1
O=C(Nc1cccn2c(=O)cc(N3CCOCC3)nc12)c1ccccc1	-1
Cc1ccc(S(=O)(=O)NCc2cccn3c(=O)cc(N4CCOCC4)nc23)cc1	-1
Cc1cc(C(C)N(C)c2ccccc2)c2nc(N3CCOCC3)cc(=O)n2c1 (racemic)	1
COc1ccc(NCc2cccn3c(=O)cc(N4CCOCC4)nc23)cc1	-1
Cc1cccc(NC(=O)c2cccn3c(=O)cc(N4CCOCC4)nc23)c1	-1
O=c1cc(N2CCOCC2)nc2c(CNc3ccc(Cl)cc3)cccn12	1
O=c1cc(N2CCOCC2)nc2c(CNc3ccccc3)cccn12	1
Cc1cccc(NCc2cccn3c(=O)cc(N4CCOCC4)nc23)c1	1
Cc1ccc(C(=O)Nc2cccn3c(=O)cc(N4CCOCC4)nc23)cc1	-1

* * *

# Test target: Phosphatidylinositol 4,5-bisphosphate 3-kinase catalytic subunit beta isoform (Homo sapiens)
// assign Yes if IC50 falls strictly below 1000 nM, else No (ties count as No)

Smiles data	Category
O=c1cc(N2CCOCC2)nc2c(NS(=O)(=O)c3ccccc3)cccn12	No
Cc1ccc(NCc2cccn3c(=O)cc(N4CCOCC4)nc23)cc1	No
Cc1cc(Nc2ccccc2C)c2nc(N3CCOCC3)cc(=O)n2c1	No
O=c1cc(N2CCOCC2)nc2c(CSc3ccccc3)cccn12	Yes
O=C(NCc1cccnc1)c1cccn2c(=O)cc(N3CCOCC3)nc12	No
O=C(Nc1ccccc1)c1cccn2c(=O)cc(N3CCOCC3)nc12	No
Cc1cc(Nc2ccccc2)c2nc(N3CCOCC3)cc(=O)n2c1	Yes

* * *

# Test target: Phosphatidylinositol 4,5-bisphosphate 3-kinase catalytic subunit delta isoform (Homo sapiens, UniProt O00329)
# Sequence (O00329 whole entry, canonical isoform): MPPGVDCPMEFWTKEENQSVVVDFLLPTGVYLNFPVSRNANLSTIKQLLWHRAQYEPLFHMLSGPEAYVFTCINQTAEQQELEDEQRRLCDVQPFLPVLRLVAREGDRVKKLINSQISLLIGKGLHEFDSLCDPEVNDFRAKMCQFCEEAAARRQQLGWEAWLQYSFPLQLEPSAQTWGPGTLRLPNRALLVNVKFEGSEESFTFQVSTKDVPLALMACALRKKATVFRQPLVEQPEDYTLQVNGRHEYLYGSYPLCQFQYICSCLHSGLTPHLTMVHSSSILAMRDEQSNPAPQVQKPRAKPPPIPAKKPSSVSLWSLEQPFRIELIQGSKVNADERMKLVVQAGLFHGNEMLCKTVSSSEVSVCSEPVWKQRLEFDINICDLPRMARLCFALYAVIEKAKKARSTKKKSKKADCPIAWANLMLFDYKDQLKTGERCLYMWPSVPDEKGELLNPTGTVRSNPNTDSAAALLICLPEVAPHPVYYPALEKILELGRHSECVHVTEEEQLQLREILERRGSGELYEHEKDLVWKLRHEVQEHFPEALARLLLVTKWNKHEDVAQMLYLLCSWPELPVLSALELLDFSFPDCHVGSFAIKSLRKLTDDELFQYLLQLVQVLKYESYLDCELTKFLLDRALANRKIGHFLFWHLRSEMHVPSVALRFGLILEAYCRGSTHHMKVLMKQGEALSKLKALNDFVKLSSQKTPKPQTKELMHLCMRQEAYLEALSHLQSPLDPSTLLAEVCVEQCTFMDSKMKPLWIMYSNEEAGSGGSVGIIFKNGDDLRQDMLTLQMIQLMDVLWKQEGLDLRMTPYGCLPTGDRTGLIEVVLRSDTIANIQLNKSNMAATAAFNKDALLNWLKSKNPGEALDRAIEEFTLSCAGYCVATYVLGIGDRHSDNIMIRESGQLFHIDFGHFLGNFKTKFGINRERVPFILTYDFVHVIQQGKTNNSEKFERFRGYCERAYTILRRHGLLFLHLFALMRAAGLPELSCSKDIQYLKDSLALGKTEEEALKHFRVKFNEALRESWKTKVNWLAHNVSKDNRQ
Measured quantity: IC50

Smiles data	Reported
O=c1cc(N2CCOCC2)nc2c(CS(=O)(=O)c3ccccc3)cccn12	> 10 µM
O=C(NCc1ccccn1)c1cccn2c(=O)cc(N3CCOCC3)nc12	> 10 µM
O=C(NCc1cccnc1)c1cccn2c(=O)cc(N3CCOCC3)nc12	> 10 µM
